- TARGET UNDER TEST: human liver recombinant Fructose-1,6-bisphosphatase (Homo sapiens)
- Sequence (P09467 1-338): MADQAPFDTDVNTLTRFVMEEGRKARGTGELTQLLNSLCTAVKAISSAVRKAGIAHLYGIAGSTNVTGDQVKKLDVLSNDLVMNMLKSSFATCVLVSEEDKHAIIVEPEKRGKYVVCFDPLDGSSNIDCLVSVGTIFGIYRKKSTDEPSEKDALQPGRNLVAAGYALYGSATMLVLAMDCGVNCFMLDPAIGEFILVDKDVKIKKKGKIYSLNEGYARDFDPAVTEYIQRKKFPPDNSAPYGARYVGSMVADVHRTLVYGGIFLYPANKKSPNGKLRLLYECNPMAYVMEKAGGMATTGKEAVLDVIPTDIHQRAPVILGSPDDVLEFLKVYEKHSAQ
- EXPERIMENTAL DETAILS: Inhibition of human liver recombinant fructose-1,6-bisphosphatase, coupled spectrophotometric enzyme assay
- Type: biochemical
- ASSAY CONDITIONS: stated in method text, read-out: IC50 for reference inhibitors of Fructose-1,6-bisphosphatase
OBSERVED PROPERTY: IC50

# input compound: O=P(O)(O)OC[C@H]1O[C@@](CO)(OP(=O)(O)O)[C@@H](O)[C@@H]1O [Fructose-2,6-Bisphosphate, reference compound] ; wanted: its IC50 ~35 µM

As a next step, examine the compound that follows.
// returns reported IC50 for input Nc1ncnc2c1ncn2[C@@H]1O[C@H](COP(=O)(O)O)[C@@H](O)[C@H]1O [AMP, reference compound] ~10 µM

Sourced from patent US8673955B2
